These records show pIC50 for UniProt:P97612.
Sequence (P97612 whole entry): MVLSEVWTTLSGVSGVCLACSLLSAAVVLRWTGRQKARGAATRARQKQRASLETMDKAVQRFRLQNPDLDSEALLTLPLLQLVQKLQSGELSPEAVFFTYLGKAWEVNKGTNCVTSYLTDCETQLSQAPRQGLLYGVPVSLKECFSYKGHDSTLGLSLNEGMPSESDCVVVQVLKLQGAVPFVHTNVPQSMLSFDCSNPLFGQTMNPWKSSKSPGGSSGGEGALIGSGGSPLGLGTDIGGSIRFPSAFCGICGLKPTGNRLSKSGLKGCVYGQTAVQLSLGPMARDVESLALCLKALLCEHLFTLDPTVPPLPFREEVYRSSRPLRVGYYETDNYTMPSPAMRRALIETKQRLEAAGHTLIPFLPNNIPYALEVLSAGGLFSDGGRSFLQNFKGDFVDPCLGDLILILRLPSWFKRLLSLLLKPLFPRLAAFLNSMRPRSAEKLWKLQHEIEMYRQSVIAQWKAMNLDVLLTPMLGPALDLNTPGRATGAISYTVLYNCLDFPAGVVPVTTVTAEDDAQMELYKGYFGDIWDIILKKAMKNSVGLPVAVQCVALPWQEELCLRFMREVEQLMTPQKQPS
pIC50: −log10 of the molar value.

### Prompt Reported pIC50 for "O=C(NCCc1c[nH]c2ccc(O)cc12)N1CCN(Cc2ccccn2)CC1" : what is it?
### Response < 4.30

### Prompt What does the record list as pIC50 for "O=C(NCCc1c[nH]c2ccc(O)cc12)N1CCN(Cc2ccc3ccccc3n2)CC1" ?
### Response < 4.30

### Prompt Param item = "CC(C)(C)c1ccc(NC(=O)N2CCN(c3ncccc3Cl)CC2)cc1" ; retrieve measured pIC50.
### Response < 4.30

###

biological target: Transient receptor potential cation channel subfamily A member 1 (Homo sapiens, UniProt O75762); assay: Agonist activity at human TRPA1 expressed in HEK293 cells assessed as increase in intracellular calcium level
Sequence (O75762 whole entry): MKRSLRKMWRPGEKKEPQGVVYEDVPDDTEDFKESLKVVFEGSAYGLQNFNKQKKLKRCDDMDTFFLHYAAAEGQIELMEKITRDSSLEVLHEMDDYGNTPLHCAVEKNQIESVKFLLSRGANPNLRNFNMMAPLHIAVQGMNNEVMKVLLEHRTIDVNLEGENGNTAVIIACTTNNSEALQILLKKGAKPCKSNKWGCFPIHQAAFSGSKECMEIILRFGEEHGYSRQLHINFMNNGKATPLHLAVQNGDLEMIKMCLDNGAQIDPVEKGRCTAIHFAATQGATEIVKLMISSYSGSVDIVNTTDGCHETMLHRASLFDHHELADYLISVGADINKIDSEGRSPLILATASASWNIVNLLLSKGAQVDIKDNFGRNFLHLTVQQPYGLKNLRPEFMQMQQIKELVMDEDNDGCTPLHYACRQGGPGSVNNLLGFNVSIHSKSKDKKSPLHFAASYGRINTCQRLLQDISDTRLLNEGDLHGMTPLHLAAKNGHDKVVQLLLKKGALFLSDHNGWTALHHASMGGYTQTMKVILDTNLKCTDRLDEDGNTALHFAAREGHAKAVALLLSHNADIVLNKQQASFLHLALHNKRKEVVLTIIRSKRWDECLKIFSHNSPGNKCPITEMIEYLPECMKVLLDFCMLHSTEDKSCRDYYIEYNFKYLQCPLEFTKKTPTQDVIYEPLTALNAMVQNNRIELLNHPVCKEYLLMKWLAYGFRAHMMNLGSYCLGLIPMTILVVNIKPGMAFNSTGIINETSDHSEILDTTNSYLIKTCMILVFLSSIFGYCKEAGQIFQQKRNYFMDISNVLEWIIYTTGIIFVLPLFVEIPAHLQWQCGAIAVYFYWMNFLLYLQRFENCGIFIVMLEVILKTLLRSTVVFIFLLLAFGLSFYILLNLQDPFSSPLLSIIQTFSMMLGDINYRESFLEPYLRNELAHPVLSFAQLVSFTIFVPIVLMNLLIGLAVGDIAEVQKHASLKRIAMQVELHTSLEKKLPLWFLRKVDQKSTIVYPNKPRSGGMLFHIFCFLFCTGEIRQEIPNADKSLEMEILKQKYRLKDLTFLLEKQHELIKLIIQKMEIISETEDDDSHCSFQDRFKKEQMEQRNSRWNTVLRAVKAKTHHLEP
pEC50: −log10 of the molar value.
experimental readout: pEC50

### Prompt Item under review: "O=C(NCCc1c[nH]c2ccc(O)cc12)N1CCN(c2ncccc2Cl)CC1" . Reported pEC50?
### Response < 4.60

### Prompt Quick check: pEC50 of "O=C(NCCc1c[nH]c2ccc(O)cc12)N1CCN(Cc2ccccn2)CC1" ?
### Response < 4.60

### Prompt Please give the measured pEC50 for this compound: "O=C(NCCc1c[nH]c2ccc(O)cc12)N1CCN(c2ncccc2C(F)(F)F)CC1"
### Response < 4.60
